Let's look at some compounds and their measured IC50.
assay: Fluorescence polarization (FP) competitive binding assay; settings: Table 20; read-out: CDK2/Cyclin A IC050

Below, 2 compounds whose answers are already recorded.
> print(dat)
                                   compound  reported.measurement
1  COc1ccccc1CC(CC(C)C)NC(=O)C(CCCCNC(=N)N)NC(=O)c1nc(C)n(-c2cc(Cl)cc(Cl)c2)n1 (single isomer, unassigned) [compound 5981]              > 180 µM
2  CCCOc1ccc(C)cc1C(CC(C)C)NC(=O)C(CCCCNC(=N)N)NC(=O)c1nc(C)n(-c2cc(Cl)cc(Cl)c2)n1 (stereo not drawn)              > 180 µM

Alright, here's another compound for you.
Incoming: Report IC50 for COc1ccccc1CC(CC(C)C)NC(=O)C(CCCCNC(=N)N)NC(=O)c1nc(C)n(-c2cc(Cl)cc(Cl)c2)n1 (stereo not drawn) [compound 5982] please.
Outgoing: > 180 µM
